- tested on: KMT9 (Homo sapiens)
- protocol notes: KMT9 methyltransferase inhibition assay, 3H-SAM scintillation (entries 1-154)
- Type: biochemical
- condition context: entries 1-154: 3H-SAM assay, 25 nM KMT9, 5 μM ETF1
pIC50: −log10 of the molar value.
Entries and their pIC50

For orientation, consider the following solved cases.
- Nc1ncnc2c1ncn2[C@@H]1O[C@H](C(=O)NCCCNCCc2ccccc2)[C@@H](O)[C@H]1O: < 5.00
- Nc1ncnc2c1c(Br)cn2[C@@H]1C[C@H](CNCCCNCCc2ccccc2)[C@@H](O)[C@H]1O: < 5.00

Give pIC50 for CNc1ncnc2c1ccn2[C@@H]1C[C@H](CNCCCNCc2ccc(Oc3ccccc3)cc2)[C@@H](O)[C@H]1O < 5.00

Please supply the value of reported pIC50 for the item Nc1ncnc2c1c(Br)cn2[C@@H]1C[C@H](CNCCCNCCc2ccc(C(F)(F)F)cc2)[C@@H](O)[C@H]1O 6.00 to 7.00

Look up and report measured pIC50 for this entry: Nc1ncnc2c1c(-c1nc(Cc3ccccc3)cs1)cn2[C@@H]1C[C@H](C2CCNCC2)[C@@H](O)[C@H]1O 5.00 to 6.00

Let me know recorded pIC50 for CNc1ncnc2c1ccn2[C@@H]1C[C@H](C#CCNCCc2ccccc2)[C@@H](O)[C@H]1O , thanks. < 5.00

Give pIC50 for the following compound: CNc1ncnc2c1ccn2[C@@H]1C[C@H](CN2CCC[C@@]23CCCNC3)[C@@H](O)[C@H]1O (single isomer, unassigned) < 5.00

Specify measured pIC50 for Nc1ncnc2c1c(-c1ccn[nH]1)cn2[C@@H]1C[C@H](CNCCCNCCc2ccccc2)[C@@H](O)[C@H]1O . 6.00 to 7.00

Provide pIC50 value for the following compound: C=Cc1cn([C@@H]2C[C@H](CNCCCNCCc3ccccc3)[C@@H](O)[C@H]2O)c2ncncc12 < 5.00

Consider the compound CNc1ncnc2c1ccn2[C@@H]1C[C@H](CS(=O)(=O)CCNCCc2ccccc2)[C@@H](O)[C@H]1O and give its recorded pIC50. < 5.00

Given CN1CCC(c2cn([C@@H]3C[C@H](CNCCCNCCc4ccccc4)[C@@H](O)[C@H]3O)c3ncnc(N)c23)CC1 , respond with its pIC50. 5.00 to 6.00

Tell me pIC50 reported for CNc1ncnc2c1ccn2[C@@H]1C[C@H](COCCCNCCc2cccc(Oc3ccccc3)c2)[C@@H](O)[C@H]1O < 5.00

Return reported pIC50. Input compound: Nc1ncnc2c1c(-c1ccccc1)cn2[C@@H]1C[C@H](CNCCCNCCc2ccccc2)[C@@H](O)[C@H]1O 6.00 to 7.00

Give the value of pIC50 reported for the following: Nc1ncnc2c1ncn2[C@@H]1O[C@H](C(=O)NCCCNCCc2cccc(Oc3ccccc3)c2)[C@@H](O)[C@H]1O 5.00 to 6.00

Let me know recorded pIC50 for Nc1ncnc2c1c(-c1ncn[nH]1)cn2[C@@H]1C[C@H](CNCCCNCCc2ccccc2)[C@@H](O)[C@H]1O , thanks. 6.00 to 7.00

Answer with the recorded pIC50 for the compound listed here: O[C@@H]1[C@H](O)[C@@H](C2CCNCC2)C[C@H]1n1cc2c3c(ncnc31)NCCC2 5.00 to 6.00

Report pIC50 for CNc1ncnc2c1ccn2[C@@H]1C[C@H](C[S+]([O-])CCCNCCc2ccccc2)[C@@H](O)[C@H]1O (stereo partly shown) < 5.00

# return recorded pIC50 for input Nc1ncnc2c1c(Br)cn2[C@@H]1C[C@H](C(=O)NC[C@@H]2CCCNC2)[C@@H](O)[C@H]1O < 5.00

Return value of pIC50 for input Nc1ncnc2c1c(-c1ccccc1)cn2[C@@H]1C[C@H](CNCCCNCCc2cccc(Oc3ccccc3)c2)[C@@H](O)[C@H]1O , no commentary. 6.00 to 7.00

Identify measured pIC50 corresponding to Cn1cc(-c2cn([C@@H]3C[C@H](CNCCCNCCc4ccccc4)[C@@H](O)[C@H]3O)c3ncnc(N)c23)cn1 5.00 to 6.00

Report pIC50, nothing else, for this compound: Cn1ccc(-c2cn([C@@H]3C[C@H](CNCCCNCCc4ccccc4)[C@@H](O)[C@H]3O)c3ncnc(N)c23)n1 6.00 to 7.00

Quickly give me recorded pIC50 for CNc1ncnc2c1ccn2[C@@H]1C[C@H](CN(CCCNCCc2cccc(Oc3ccccc3)c2)NC)[C@@H](O)[C@H]1O < 5.00

Entry Nc1ncnc2c1c(-c1ccn(Cc3ccccc3)n1)cn2[C@@H]1C[C@H](CNCCCNCCc2ccccc2)[C@@H](O)[C@H]1O needs its pIC50 filled in; supply it. 5.00 to 6.00

---

Each entry below carries its reported IC50.
- tested on: KMT9 (Homo sapiens, UniProt Q9Y5N5)
- Sequence (Q9Y5N5 whole entry): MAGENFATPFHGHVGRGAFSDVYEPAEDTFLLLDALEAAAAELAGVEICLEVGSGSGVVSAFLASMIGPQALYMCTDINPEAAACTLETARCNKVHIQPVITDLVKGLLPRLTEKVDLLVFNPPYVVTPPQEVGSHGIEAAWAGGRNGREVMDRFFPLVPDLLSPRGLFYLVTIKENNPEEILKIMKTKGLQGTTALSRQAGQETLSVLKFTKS
- Sequence (Q9UI30 1-120 isoform Q9UI30-2 partner): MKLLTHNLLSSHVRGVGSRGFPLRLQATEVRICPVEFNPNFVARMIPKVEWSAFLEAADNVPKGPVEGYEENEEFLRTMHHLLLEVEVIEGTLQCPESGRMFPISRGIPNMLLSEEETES
- protocol notes: KMT9 methyltransferase inhibition assay, 3H-SAM scintillation (entries 1-154)
- Format: biochemical
- condition context: entries 1-154: 3H-SAM assay, 25 nM KMT9, 5 μM ETF1

These recorded examples may help you get a feel for the data.
• Nc1ncnc2c1c(-c1ncc[nH]1)cn2[C@@H]1C[C@H](CNCCCNCCc2ccccc2)[C@@H](O)[C@H]1O [473 (347)] = 0.1 to 1 µM
• Nc1ncnc2c1c(Br)cn2[C@@H]1C[C@H](CNCCCNCCc2cccc(Oc3ccccc3)c2)[C@@H](O)[C@H]1O [457 (329)] = 0.1 to 1 µM

For the molecule CNc1ncnc2c1ccn2[C@@H]1C[C@H](CN(CCCN)c2cn[nH]c2Br)[C@@H](O)[C@H]1O [Compound 606] , give its reported IC50. > 10 µM

Given CNc1ncnc2c1ccn2[C@@H]1C[C@H](COCCNCCc2ccccc2)[C@@H](O)[C@H]1O [419 (290)] , respond with its IC50. > 10 µM

Find the measured IC50 of CNc1ncnc2c1ccn2[C@@H]1C[C@H](CN(CCCNCCc2ccccc2)c2cnn(C)c2)[C@@H](O)[C@H]1O [441 (313)] and report it. > 10 µM

# return recorded IC50 for entry CNc1ncnc2c1ccn2[C@@H]1C[C@H](CN(CCCNCCc2ccccc2)c2cncs2)[C@@H](O)[C@H]1O [439 (311)] 1 to 10 µM

Respond only with IC50 recorded for CNc1ncnc2c1ccn2[C@@H]1C[C@H](CN(C[C@H]2CCCNC2)c2cncs2)[C@@H](O)[C@H]1O [438 (310)] > 10 µM

---

- tested on: KMT9 (Homo sapiens, UniProt Q9Y5N5)
- protocol notes: KMT9 methyltransferase inhibition assay, 3H-SAM scintillation (entries 1-154)
- Type: biochemical
- condition context: entries 1-154: 3H-SAM assay, 25 nM KMT9, 5 μM ETF1
// reported IC50 for each item listed

Solved cases below.
• Nc1ncnc2c1c(Br)cn2[C@@H]1C[C@H](CNC[C@H]2CCCNC2)[C@@H](O)[C@H]1O = > 10 µM
• CNc1ncnc2c1ccn2[C@@H]1C[C@H](CS(=O)(=O)CCCNCCc2ccccc2)[C@@H](O)[C@H]1O = > 10 µM
• CCc1cn([C@@H]2C[C@H](CNCCCNCCc3ccccc3)[C@@H](O)[C@H]2O)c2ncnc(Cl)c12 = > 10 µM
• Cc1cn([C@@H]2C[C@H](CNCCCNCCc3ccccc3)[C@@H](O)[C@H]2O)c2ncnc(N)c12 = 1 to 10 µM
• Nc1ncnc2c1c(Br)cn2[C@@H]1C[C@H](CNCCCNCCc2ccc(F)cc2)[C@@H](O)[C@H]1O = 0.1 to 1 µM

Lab note: KMT9 (Homo sapiens, UniProt Q9Y5N5) assay, enter IC50 for Nc1ncnc2c1c(Br)cn2[C@@H]1C[C@H](CNCCCNCc2ccc(F)cc2)[C@@H](O)[C@H]1O here 0.1 to 1 µM

Find the measured IC50 of CNc1ncnc2c1ccn2[C@@H]1C[C@H](Cn2ccnc2CCCNCCc2cccc(Oc3ccccc3)c2)[C@@H](O)[C@H]1O with KMT9 (Homo sapiens, UniProt Q9Y5N5) as test system. > 10 µM

---

- tested on: KMT9 (Homo sapiens)
- protocol notes: Microscale thermophoresis (MST) KMT9 binding
- condition context: microscale thermophoresis, His-tag labelled KMT9 (20 nM); read-out: MST
Let's look at some compounds and their measured Kd.

- CCc1cn([C@@H]2C[C@H](CNCCCNCCc3ccccc3)[C@@H](O)[C@H]2O)c2ncnc(N)c12 [465 (339)]: 100 to 1000 nM
- CNc1ncnc2c1ccn2[C@@H]1C[C@H](CN(CCCNCCc2ccccc2)c2cncs2)[C@@H](O)[C@H]1O [439 (311)]: > 1000 nM
- O[C@@H]1[C@@H](CNCCCNCCc2ccccc2)C[C@@H](n2cc3c4c(ncnc42)NCCCC3)[C@@H]1O [Compound 631]: 10 to 100 nM
- Nc1ncnc2c1c(C1CC1)cn2[C@@H]1C[C@H](CNCCCNCCc2ccccc2)[C@@H](O)[C@H]1O [468 (342)]: 100 to 1000 nM

Fill in Kd for record CNc1ncnc2c1ccn2[C@@H]1C[C@H](CNCCCNCc2ccc(Oc3ccccc3)cc2)[C@@H](O)[C@H]1O [332 (236)] > 1000 nM

Tell me its Kd given Nc1ncnc2c1c(-c1ccncn1)cn2[C@@H]1C[C@H](CNCCCNCCc2ccccc2)[C@@H](O)[C@H]1O [471 (345)] as the entry. 100 to 1000 nM

Return value of Kd for input CNc1ncnc2c1ccn2[C@@H]1C[C@H](CN2CCC[C@@]23CCCNC3)[C@@H](O)[C@H]1O (single isomer, unassigned) [450 (322)] , no commentary. > 1000 nM

For Nc1ncnc2c1c(-c1ccccc1)cn2[C@@H]1C[C@H](CNCCCNCCc2ccc(F)cc2)[C@@H](O)[C@H]1O [340 (244)] , write its Kd. 10 to 100 nM

Respond only with Kd recorded for CNc1ncnc2c1ccn2[C@@H]1C[C@H](CN(CCCNCCc2cccc(Oc3ccccc3)c2)C(C)C)[C@@H](O)[C@H]1O [362 (266)] 100 to 1000 nM

Identify measured Kd associated with CNc1ncnc2c1ccn2[C@@H]1C[C@H](CNCCCNCc2ccc(OCc3ccccc3)cc2)[C@@H](O)[C@H]1O [328 (232)] > 1000 nM

Supply recorded Kd for Nc1ncnc2c1c(Br)cn2[C@@H]1C[C@H](C(=O)NC[C@@H]2CCCNC2)[C@@H](O)[C@H]1O [454 (326)] here. 100 to 1000 nM

Could you please provide reported Kd for CNc1ncnc2c1ccn2[C@@H]1C[C@H](COCCNCCc2ccccc2)[C@@H](O)[C@H]1O [419 (290)] ? Thanks! > 1000 nM

Return the recorded Kd value; entry: C=Cc1cn([C@@H]2C[C@H](CNCCCNCCc3ccccc3)[C@@H](O)[C@H]2O)c2ncncc12 [Compound 608] 100 to 1000 nM

Give the reported Kd for this compound. CNc1ncnc2c1ccn2[C@@H]1C[C@H](CSCCCNCCc2ccccc2)[C@@H](O)[C@H]1O [427 (299)] > 1000 nM
